B1: glmS ribozyme (parent)
chain: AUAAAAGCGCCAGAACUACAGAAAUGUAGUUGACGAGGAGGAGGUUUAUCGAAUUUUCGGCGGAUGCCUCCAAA

Variants of: B1
Test: self-cleavage kobs at 640 uM GlcN6P; higher = faster cleavage; RNA array
Details: with glucosamine-6-phosphate
This sample holds only a part of the variants without activity.
Consider the following variants; for each one, report its self-cleavage kobs at 640 uM GlcN6P.

Q. Give the value of self-cleavage kobs at 640 uM GlcN6P reported for the following: A48C C61A
A. < 1e-05 s⁻¹

Q. Return the recorded self-cleavage kobs at 640 uM GlcN6P value; entry: A48U C61U
A. < 1e-05 s⁻¹

Q. Tell me measured self-cleavage kobs at 640 uM GlcN6P for G9C G59C please.
A. < 1e-05 s⁻¹

Q. Tell us which self-cleavage kobs at 640 uM GlcN6P value is on record for G7A G13A
A. < 1e-05 s⁻¹

Q. Entry G13U G37A A53C G60U C67G needs its self-cleavage kobs at 640 uM GlcN6P filled in; supply it.
A. < 1e-05 s⁻¹

Q. Provide self-cleavage kobs at 640 uM GlcN6P value for the following variant: G35A U46G A48G C68A C71U
A. < 1e-05 s⁻¹

Q. Complete the entry with self-cleavage kobs at 640 uM GlcN6P for C8G G32A U46C A53U G63C
A. < 1e-05 s⁻¹

Q. Input A39U G43U C50U , output reported self-cleavage kobs at 640 uM GlcN6P.
A. < 1e-05 s⁻¹

Q. Supply reported self-cleavage kobs at 640 uM GlcN6P belonging to this variant: G35A C50U C67G C70U
A. < 1e-05 s⁻¹

Q. Given the variant A6U A33G G41A A64U , write its reported self-cleavage kobs at 640 uM GlcN6P.
A. < 1e-05 s⁻¹

Q. Please report the measured self-cleavage kobs at 640 uM GlcN6P for G32U C34G G43A
A. < 1e-05 s⁻¹

Q. Read off the recorded self-cleavage kobs at 640 uM GlcN6P for G9A A15G
A. < 1e-05 s⁻¹

Q. Report measured self-cleavage kobs at 640 uM GlcN6P; entry is G37C C50U A53G U56C
A. < 1e-05 s⁻¹

Q. Give a short answer stating reported self-cleavage kobs at 640 uM GlcN6P for U56G U57G G66U .
A. < 1e-05 s⁻¹

Q. Answer with the recorded self-cleavage kobs at 640 uM GlcN6P for the variant listed here: G35C G40A A42U
A. < 1e-05 s⁻¹

Q. Return self-cleavage kobs at 640 uM GlcN6P for the following variant: G13A G41C
A. < 1e-05 s⁻¹

Q. # return recorded self-cleavage kobs at 640 uM GlcN6P for entry G44C C58U
A. < 1e-05 s⁻¹

Q. Please indicate self-cleavage kobs at 640 uM GlcN6P recorded for C8U A33U G60U
A. < 1e-05 s⁻¹

Q. Report self-cleavage kobs at 640 uM GlcN6P for A6C G62C
A. < 1e-05 s⁻¹

Q. Find the measured self-cleavage kobs at 640 uM GlcN6P of G13U A36U and report it.
A. < 1e-05 s⁻¹

Q. State its self-cleavage kobs at 640 uM GlcN6P for this variant: G7U A14G G60C C70A
A. < 1e-05 s⁻¹

Q. Recall and state the measured self-cleavage kobs at 640 uM GlcN6P for G40C A42C .
A. < 1e-05 s⁻¹

Q. Specify self-cleavage kobs at 640 uM GlcN6P for C11U G41U U45C and stop.
A. < 1e-05 s⁻¹

Q. Give reported self-cleavage kobs at 640 uM GlcN6P value for G59C C71U
A. < 1e-05 s⁻¹

Q. Give the reported value of self-cleavage kobs at 640 uM GlcN6P for this record: G9U A42G U47C
A. < 1e-05 s⁻¹

Q. Hello, please tell me recorded self-cleavage kobs at 640 uM GlcN6P for this one: G35C A36U
A. < 1e-05 s⁻¹

Q. Using known records, supply self-cleavage kobs at 640 uM GlcN6P for A48U C50G C70U
A. 9.42e-05 s⁻¹

Q. Give self-cleavage kobs at 640 uM GlcN6P for C16U U30A G40A
A. 4.8e-05 s⁻¹

Q. For the variant G35U G41U G43A , report self-cleavage kobs at 640 uM GlcN6P.
A. < 1e-05 s⁻¹

Q. Fill in self-cleavage kobs at 640 uM GlcN6P for record G41U U46G C61A
A. < 1e-05 s⁻¹

Q. // Input: G35A G41U U46A . Output its self-cleavage kobs at 640 uM GlcN6P only.
A. < 1e-05 s⁻¹

Q. Output self-cleavage kobs at 640 uM GlcN6P of C11U G37A U57G G63A
A. < 1e-05 s⁻¹

Q. Give self-cleavage kobs at 640 uM GlcN6P for A15G A48C
A. 9.04e-05 s⁻¹

Q. Specify measured self-cleavage kobs at 640 uM GlcN6P for C11A G13U U57G C71U .
A. 4.71e-05 s⁻¹

Q. Give the reported value of self-cleavage kobs at 640 uM GlcN6P for this record: A33U C34U
A. < 1e-05 s⁻¹

Q. Check the records and state self-cleavage kobs at 640 uM GlcN6P for A14G C58A
A. 0.000214 s⁻¹

Q. Kindly indicate its recorded self-cleavage kobs at 640 uM GlcN6P. Item: U65A G66A
A. 0.000177 s⁻¹

Q. Name the recorded self-cleavage kobs at 640 uM GlcN6P of the item G9U G40C G51A in your answer.
A. < 1e-05 s⁻¹

Q. Output measured self-cleavage kobs at 640 uM GlcN6P for this item: G29A C70G
A. 5.96e-05 s⁻¹

Q. Could you please provide reported self-cleavage kobs at 640 uM GlcN6P for A64C G66U C68G ? Thanks!
A. < 1e-05 s⁻¹

Q. Identify self-cleavage kobs at 640 uM GlcN6P associated with the variant G62C C70G C71A
A. 6.26e-05 s⁻¹

Q. Identify the reported self-cleavage kobs at 640 uM GlcN6P for the following entry. G38A G43A
A. < 1e-05 s⁻¹

Q. Identify the reported self-cleavage kobs at 640 uM GlcN6P for the following entry. U30G U55A
A. 0.0024 s⁻¹

Q. Return reported self-cleavage kobs at 640 uM GlcN6P. Input variant: A15U U46A
A. 8.53e-05 s⁻¹

Q. Write down self-cleavage kobs at 640 uM GlcN6P measured for item U46G A53G C70A
A. 0.000507 s⁻¹

Q. Give the value of self-cleavage kobs at 640 uM GlcN6P reported for the following: A33U U45G U47A C67A C68G
A. < 1e-05 s⁻¹

Q. Look up self-cleavage kobs at 640 uM GlcN6P of U47A C68G and report it.
A. 4.99e-05 s⁻¹

Q. // fetch self-cleavage kobs at 640 uM GlcN6P given entry G7A G32C
A. < 1e-05 s⁻¹

Q. Look up and state reported self-cleavage kobs at 640 uM GlcN6P for U65A C70A
A. 5.79e-05 s⁻¹

Q. Specify reported self-cleavage kobs at 640 uM GlcN6P for the variant shown: U31G A33G U56C
A. < 1e-05 s⁻¹

Q. Read off the recorded self-cleavage kobs at 640 uM GlcN6P for A12C A33U A52G U54G
A. < 1e-05 s⁻¹

Q. Give reported self-cleavage kobs at 640 uM GlcN6P value for G51C U56A
A. < 1e-05 s⁻¹

Q. Look up and state reported self-cleavage kobs at 640 uM GlcN6P for G7C G29C G35U
A. < 1e-05 s⁻¹

Q. Give a short answer stating reported self-cleavage kobs at 640 uM GlcN6P for G13A U45C G66A .
A. 0.000124 s⁻¹

Q. Supply self-cleavage kobs at 640 uM GlcN6P value. Item: G9U C10U G38U G44C U49C
A. < 1e-05 s⁻¹

Q. Specify measured self-cleavage kobs at 640 uM GlcN6P for G7U G60U .
A. < 1e-05 s⁻¹

Q. Name the recorded self-cleavage kobs at 640 uM GlcN6P of the item A39G C68U in your answer.
A. 0.00223 s⁻¹

Q. Give the value of self-cleavage kobs at 640 uM GlcN6P reported for the following: U49A C50G
A. < 1e-05 s⁻¹

Q. Provide self-cleavage kobs at 640 uM GlcN6P value for the following variant: G29U C71A
A. 0.000172 s⁻¹

Q. State its self-cleavage kobs at 640 uM GlcN6P for this variant: G41A U56G
A. 5.1e-05 s⁻¹

Q. Specify reported self-cleavage kobs at 640 uM GlcN6P for the variant shown: U47A C61A C67G C71A
A. < 1e-05 s⁻¹

Q. Quick one: give measured self-cleavage kobs at 640 uM GlcN6P for G37A A42U
A. 0.000193 s⁻¹

Q. Supply reported self-cleavage kobs at 640 uM GlcN6P belonging to this variant: A12U C34U A36U U55G
A. < 1e-05 s⁻¹

Q. Give the measured self-cleavage kobs at 640 uM GlcN6P for A39U G41U A42U
A. 5.35e-05 s⁻¹

Q. Supply self-cleavage kobs at 640 uM GlcN6P value. Item: C10U G66C
A. < 1e-05 s⁻¹

Q. For the variant G51U A53U U54A , report self-cleavage kobs at 640 uM GlcN6P.
A. < 1e-05 s⁻¹

Q. // Input: G32C G35A A36U U47G U56G . Output its self-cleavage kobs at 640 uM GlcN6P only.
A. < 1e-05 s⁻¹

Q. State its self-cleavage kobs at 640 uM GlcN6P: A42C U69A
A. 0.000125 s⁻¹

Q. Recall and state the measured self-cleavage kobs at 640 uM GlcN6P for A14C G40U C67U .
A. < 1e-05 s⁻¹

Q. Complete the entry with self-cleavage kobs at 640 uM GlcN6P for G9U U31C
A. < 1e-05 s⁻¹

Q. Give recorded self-cleavage kobs at 640 uM GlcN6P. G37A G51C
A. < 1e-05 s⁻¹

Q. Return self-cleavage kobs at 640 uM GlcN6P (reported value) for this variant: A12U U31C C67U
A. 0.000286 s⁻¹

Q. Please give measured self-cleavage kobs at 640 uM GlcN6P of the following entry: A14G C70A
A. 0.000328 s⁻¹

Q. Supply reported self-cleavage kobs at 640 uM GlcN6P belonging to this variant: A14U U47C C58G C68G
A. 5.55e-05 s⁻¹

Q. Give me measured self-cleavage kobs at 640 uM GlcN6P, please, for this variant: A6U A42G
A. 8.54e-05 s⁻¹
